Data credit: paper PMC4333400

target.of.assay: T1, EcMazE1-50 (Escherichia coli, UniProt P0AE72 1-50)
T1 chain: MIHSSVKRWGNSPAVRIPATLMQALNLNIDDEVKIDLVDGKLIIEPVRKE
protocol.description: ITC
Measured Kd by item
State just the number; it will be interpreted in µM.

In the examples that follow, each entry is paired with its recorded Kd.
Data request: Given the binder DNA 'a' (14 bp) (dsDNA) DNA 1: TTGATATATACTGT DNA 2: ACAGTATATATCAA , what is its reported Kd?
Data returned: 5.6

Data request: Given the binder DNA 'b' (dsDNA) DNA 1: ATATACTGTATCTACATAT DNA 2: ATATGTAGATACAGTATAT , what is its reported Kd?
Data returned: 2.1

Next item in the queue.
Data request: Given the binder DNA 'c' (dsDNA) DNA 1: GTATCTACAATGTAGATTG DNA 2: CAATCTACATTGTAGATAC , what is its reported Kd?
Data returned: 0.6
